Provide the recorded IC50 for the entries that follow.
# target under test: [35S]-TBPS binding in rat brain cortical membranes
# test name: Steroid inhibition of [35S]-TBPS binding, rat brain cortical membranes
# reported conditions: 3 nM [35S]-TBPS, in the presence of 5 μM GABA, read-out: 35S-TBPS Radioligand Displacement (IC50)

Field: IC50 ([35S]-TBPS binding in rat brain cortical membranes). Entry: "COC[C@]12CC[C@@](C)(O)C[C@@H]1CC[C@H]1[C@@H]3CC[C@H](C(=O)Cn4nnc5ccc(OC)c(OC)c54)[C@@]3(C)CC[C@@H]12"
10 to 50 nM

Field: IC50 ([35S]-TBPS binding in rat brain cortical membranes). Entry: "COC[C@]12CC[C@@](C)(O)C[C@H]1CC[C@H]1[C@@H]3CC[C@H](C(=O)Cn4nnc5ccc(F)c(F)c54)[C@@]3(C)CC[C@@H]12"
< 10 nM

Field: IC50 ([35S]-TBPS binding in rat brain cortical membranes). Entry: "COC[C@]12CC[C@@](C)(O)C[C@@H]1CC[C@H]1[C@@H]3CC[C@H](C(=O)Cn4cc(C#N)cn4)[C@@]3(C)CC[C@@H]12"
10 to 50 nM
